These measurements were taken from patent US20200339680A1.

molecular target: T1, human TMEM106B (human, UniProt Q9NUM4 2-274); assay: FACS A549 10 ug/ml
T1 construct: full-length, transiently expressed on HEK293 cells, or natively expressed on HeLa, U251 and A549 cells (the cell is named under assay); also the source of the Pepscan peptides; also called huTMEM106B; huTMEM
observed.property: log10(MFI) (log10 of the value in MFI)
Scale: log10; quantity: MFI; unit before log: MFI

{"binder": "TM-42 (antibody, V domains shown) VH: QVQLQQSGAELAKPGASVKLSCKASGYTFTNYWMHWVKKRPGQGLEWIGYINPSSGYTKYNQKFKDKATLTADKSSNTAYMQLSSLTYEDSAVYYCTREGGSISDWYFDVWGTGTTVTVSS VL: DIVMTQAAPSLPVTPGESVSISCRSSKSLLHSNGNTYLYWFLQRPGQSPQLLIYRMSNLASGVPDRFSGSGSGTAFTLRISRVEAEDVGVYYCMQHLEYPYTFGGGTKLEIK", "log10(MFI)": 3.52}
{"binder": "TM-1 (antibody, V domains shown) VH: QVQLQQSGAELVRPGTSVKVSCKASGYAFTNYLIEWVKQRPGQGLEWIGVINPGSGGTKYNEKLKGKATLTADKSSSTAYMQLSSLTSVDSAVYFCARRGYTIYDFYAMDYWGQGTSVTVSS VL: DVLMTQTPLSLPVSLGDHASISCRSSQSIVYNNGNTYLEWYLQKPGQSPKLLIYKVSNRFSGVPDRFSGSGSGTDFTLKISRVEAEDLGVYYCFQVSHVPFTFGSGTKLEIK", "log10(MFI)": 2.61}
{"binder": "TM-8 (antibody, V domains shown, mouse IgG (hybridoma)) VH: QIQLVQSGPELKKPGETVKISCKASGYTFTDYPMHWVKQAPGKGFKWMGVIYTDTGEPKYAEVFKGRFAFSLETSASTAYLQINNLKNEDTATYFCVRRLAYWGQGTLVTVSA VL: DIKMTQSPSSMYASLGERVTITCKASQDINSYLSWFQQKPGKSPKTLIFRANRLVDGVPSRFSGSGSGQDYSLTISSLEYEDMGIYYCLQYDEFPLTFGAGTKLEMK", "log10(MFI)": 2.69}
{"binder": "TM-12 (antibody, V domains shown) VH: EVQLQQSGAELMRPGASVKLSCTASGFNIQDYYMYWVKQRPEQGLEWIGRIDPEDGDAEYAPKFQGKATMTADTSSNTAYLQLSSLTSEDTAVYYCSTRVIYDGYYRTMDCWGQGTSVTVSS VL: DVLMTQIPLSLPVSLGDQASISCRSSQTIVHSNGNTYLEWYLKKPGQSPKLLIDKISNRFSGVPDRFSGSGSGTDFTLKISRVEAEDLGVYYCFQGSHVPYTFGGGTKLEIK", "log10(MFI)": 3.69}
{"binder": "TM-15 (antibody, V domains shown, mouse IgG (hybridoma)) VH: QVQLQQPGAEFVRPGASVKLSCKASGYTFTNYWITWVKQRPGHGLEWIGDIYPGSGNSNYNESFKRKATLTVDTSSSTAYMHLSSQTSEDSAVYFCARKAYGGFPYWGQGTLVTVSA VL: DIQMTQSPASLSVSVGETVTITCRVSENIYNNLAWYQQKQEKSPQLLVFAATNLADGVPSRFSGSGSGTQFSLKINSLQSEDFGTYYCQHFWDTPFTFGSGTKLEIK", "log10(MFI)": 3.30}
{"binder": "TM-19 (antibody, V domains shown) VH: DVQLQQSGAELVRPGASVKLSCTASGFNIKDYYMYWVKQRPEQGLEWIGRIDPEDGDTENAPKFRGMATMTADTSSNTAYLQLNSLTSEDTAVYYCTTRIGNLYHVMDYWGHGTSVTVSS VL: DVLMTQTPLSLPVSLGDQASISCRSSQSIVHSNGNTYLEWYLQKPGQAPKLLIDKVFNRFSGVPDRFSGSGSGTDFTLKISRVEAEDLGVYYCFQGSHVPFTFGSGTKLEIK", "log10(MFI)": 3.70}

// next item, log10(MFI) requested
Supply measured log10(MFI) of TM-3 (antibody, V domains shown) VH: QVTLKESGPGIVQPSQTLSLTCSFSGFSLNTLGRGVGWIRQPSGKGLEWLAKIWWNDDKFYYPALKSRLTISKDTSKNQIFLKIANVDTADSATYYCARIAGGTGAAYWGQGTTLTVSS VL: DIVMTQAAFSNPVTLGTSASISCRSSKSLLHSNGITYLYWYLQKPGQSPQLLISQMSSLASGVPDRFSSGGSGTDFTLRISRVEAEDVGVFYCAQNLELPWTFGGGTKLELK in your reply.
3.88
